Quick reference for LD50 among some compounds
- Test system: ddy mice
- Assay explanation: Acute toxicity (LD50)
- Assay type: in vivo
- Measurement conditions: oral administration; 7 days

The following compounds have reported results that may help.
CCN1C=CC(=CC=C(C=Cc2cc[n+](CC)c3ccccc23)c2cc[n+](CC)c3ccccc23)c2ccccc21 [compound 3]
≥ 4.0 g/kg body weight
CCN1C=CC(=CC=C(C=Cc2cc[n+](CC)c3ccccc23)c2cc[n+](CC)c3ccccc23)c2ccccc21 [compound 5]
≥ 4.0 g/kg body weight
CCN1C=CC(=CC=C(C=Cc2cc[n+](CC)c3ccccc23)c2cc[n+](CC)c3ccccc23)c2ccccc21 [compound 2]
≥ 4.0 g/kg body weight

Next compound, LD50 to be filled in.
// returns reported LD50 for input CCN1C=CC(=CC=C(C=Cc2cc[n+](CC)c3ccccc23)c2cc[n+](CC)c3ccccc23)c2ccccc21 [compound 4]
≥ 4.0 g/kg body weight
